Test system: UACC-62 melanoma
Assay summary: NCI tumour cell line growth inhibition, 384-well format; in the data active means GI50 below about 0.43 µM; inactive means the rest
Reply using exactly one outcome from class 1 = active, class 0 = inactive

CCN(CC)CCCCNc1ncc2cc(-c3cc(OC)cc(OC)c3)c(NC(=O)NC(C)(C)C)nc2n1; class 0
COc1ccc(-c2nc(N3CCOCC3)c3sc(CN(C)c4ncc(C(=O)NO)cn4)cc3n2)cn1; class 1
OCC1OC(n2cnc3c2NC=NC[C@H]3O)CC1O (stereo not given in full); class 0
CC(C)n1c(=O)n(C)c2cnc3cc(F)c(-c4ccc(OCCCN5CCCCC5)nc4)cc3c21; class 0

Note: attention shifts to another entry.
Please let me know the test result on file for CS(=O)(=O)c1ccc(Oc2cc(F)cc(C#N)c2)c2c1[C@H](O)C(F)(F)C2 . class 0
